Recorded log10 of Lowest effective dose values for a group of compounds are listed next.
- Tested on: C2C12 cells
- DETAILS: mouse, 24 h
Where a name gives a salt, the structure may show the parent alone.
MEASURED_METRIC: log10 of Lowest effective dose (log10 of the value in µg/mL)

# COMPOUND, MEASURED_VALUE
measured = [
    ("CC[C@]1(O)C[C@H]2CN(CCc3c([nH]c4ccccc34)[C@@](C(=O)OC)(c3cc4c(cc3OC)N(C=O)[C@H]3[C@@](O)(C(=O)OC)[C@H](OC(C)=O)[C@]5(CC)C=CCN6CC[C@]43[C@@H]65)C2)C1 [Vincristine sulfate]", -2.70),
    ("CC(=O)O[C@H]1C(=O)[C@@]2(C)[C@H]([C@H](OC(=O)c3ccccc3)[C@]3(O)C[C@H](OC(=O)[C@H](O)[C@@H](NC(=O)c4ccccc4)c4ccccc4)C(C)=C1C3(C)C)[C@]1(OC(C)=O)CO[C@@H]1C[C@@H]2O", -2.70),
    ("CC/C(=C(/CC)c1ccc(O)cc1)c1ccc(O)cc1", 0.26),
    ("O=c1[nH]cc(F)c(=O)[nH]1", -3.10),
    ("CC[C@]1(O)C[C@@H]2CN(CCc3c([nH]c4ccccc34)[C@@](C(=O)OC)(c3cc4c(cc3OC)N(C)[C@H]3[C@@](O)(C(=O)OC)[C@H](OC(C)=O)[C@]5(CC)C=CCN6CC[C@]43[C@@H]65)C2)C1 [Vinblastine sulfate]", -3.22),
    ("COc1cccc2c1C(=O)c1c(O)c3c(c(O)c1C2=O)C[C@@](O)(C(=O)CO)C[C@@H]3O[C@H]1C[C@H](N)[C@H](O)[C@H](C)O1 [Doxorubicin HCl]", -2.30),
    ("CCOS(C)(=O)=O [Methanesulfonate ethyl ester (EMS), Methanesulfonate ethyl ester]", 2.00),
]
